Record form. Attribute: Emax, cell proliferation assay. Fill in for each entry.
target: human erythropoietin receptor on human erythroleukemic cells (UT-7/Epo, F36E) (human), P19235; assay: cell-based or functional assay
Sequence (P19235 25-508, stated change not applied): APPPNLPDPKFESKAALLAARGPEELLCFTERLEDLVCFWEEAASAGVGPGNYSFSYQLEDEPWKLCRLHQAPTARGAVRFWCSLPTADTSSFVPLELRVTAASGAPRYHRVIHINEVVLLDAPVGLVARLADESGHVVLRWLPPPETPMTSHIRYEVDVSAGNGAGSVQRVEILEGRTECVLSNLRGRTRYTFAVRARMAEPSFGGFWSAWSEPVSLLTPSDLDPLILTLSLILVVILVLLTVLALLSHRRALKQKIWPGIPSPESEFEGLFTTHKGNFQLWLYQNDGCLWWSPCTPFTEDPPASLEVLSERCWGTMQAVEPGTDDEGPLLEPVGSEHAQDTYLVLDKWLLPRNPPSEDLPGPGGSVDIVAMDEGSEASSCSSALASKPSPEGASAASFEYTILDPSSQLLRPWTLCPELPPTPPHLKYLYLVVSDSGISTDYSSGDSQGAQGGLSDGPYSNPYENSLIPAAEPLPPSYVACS
// return numeric value only (unit: absorbance, not printed)

Which Emax, cell proliferation assay is listed for Ab12.121 (antibody, IgG2, V domains shown) VH: QVQLQESGPGLVKPSETLSLTCTVSGASISSYYWSWIRQPPGKGLEWIGYIGGSGSTNYNPSLKSRVTISVDTSKNQFSLKLRSVTAADTAVYYCARERLGIGDYWGQGTLVTVSS VL: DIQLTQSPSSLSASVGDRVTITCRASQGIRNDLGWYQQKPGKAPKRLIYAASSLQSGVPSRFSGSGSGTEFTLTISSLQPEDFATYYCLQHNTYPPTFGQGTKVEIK ?
2.3

Cool, now Ab12.6 (antibody, V domains shown) VH: QVQLQESGPGLVKPSETLSLTCTVSGASISSYYWSWIRQPPGKGLEWIGYIGGEGSTNYNPSLKSRVTISVDTSKNQFSLKLRSVTAADTAVYYCARERLGIGDYWGQGTLVTVSS VL: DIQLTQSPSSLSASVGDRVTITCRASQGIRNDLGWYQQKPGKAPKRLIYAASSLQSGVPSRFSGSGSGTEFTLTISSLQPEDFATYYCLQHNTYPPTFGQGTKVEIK
2.81

Moving on to the next binder: Ab12.120 (antibody, IgG2, V domains shown) VH: QVQLQESGPGLVKPSETLSLTCTVSGASISSYYWSWIRQPPGKGLEWIGYIYYEGSTNYNPSLKSRVTISVDTSKNQFSLKLRSVTAADTAVYYCARERLGIGDYWGQGTLVTVSS VL: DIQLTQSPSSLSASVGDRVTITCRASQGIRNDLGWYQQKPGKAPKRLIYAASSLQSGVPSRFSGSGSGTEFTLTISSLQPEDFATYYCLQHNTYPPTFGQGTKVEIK
2

Would you kindly repeat that for Ab12.122 (antibody, IgG2, V domains shown) VH: QVQLQESGPGLVKPSETLSLTCTVSGASISSYYWSWIRQPPGKGLEWIGYIYGEGSTNYNPSLKSRVTISVDTSKNQFSLKLRSVTAADTAVYYCARERLGIGDYWGQGTLVTVSS VL: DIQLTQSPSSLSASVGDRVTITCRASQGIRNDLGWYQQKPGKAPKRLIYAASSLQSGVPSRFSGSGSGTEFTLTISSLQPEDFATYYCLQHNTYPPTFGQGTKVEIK ?
2.4
